src = patent US5698522A

- test system: LHRH receptor (Rattus norvegicus)
- Construct: endogenous in cells
- Sequence (P30969 1-327): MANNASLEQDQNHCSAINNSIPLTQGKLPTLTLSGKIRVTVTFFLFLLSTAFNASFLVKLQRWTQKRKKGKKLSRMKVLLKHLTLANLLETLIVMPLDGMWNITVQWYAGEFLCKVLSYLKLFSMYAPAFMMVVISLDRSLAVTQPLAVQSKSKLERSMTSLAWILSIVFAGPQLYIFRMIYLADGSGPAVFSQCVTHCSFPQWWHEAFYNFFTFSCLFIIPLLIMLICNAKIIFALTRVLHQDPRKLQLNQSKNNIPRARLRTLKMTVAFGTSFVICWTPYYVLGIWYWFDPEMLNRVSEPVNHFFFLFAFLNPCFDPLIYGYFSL
- protocol summary: in vitro LHRH antagonist potency (pA2) against the agonist leuprolide
- Format: cell-based
- measurement parameters: negative logarithm of the antagonist concentration which shifts the response curve produced by the agonist leuprolide to two-fold higher concentration
*1 amine or outer side, *2 acyl side, *3 side chain or, on linkers, in order; H or OH if unused. Where a SMILES comes first, the peptide text is derived from it. Side-chain parts run from the residue outwards. [ ]: non-standard residue; d: D form. The star is where a group is joined. Shikimoyl = O=C(C1=C[C@@H](O)[C@@H](O)[C@H](O)C1)*; X5 = O=C(NCCCN*)C1=C[C@@H](O)[C@@H](O)[C@H](O)C1; dPhe(4-Cl) = N[C@H](Cc1ccc(Cl)cc1)C(=O)O; d2Nal = N[C@H](Cc1ccc2ccccc2c1)C(=O)O; Lys(iPr) = CC(C)NCCCC[C@H](N)C(=O)O; NMeY = CN[C@@H](Cc1ccc(O)cc1)C(=O)O; Ethylenediamine = C(CN[*:2])N[*:1]; d3Pal = N[C@H](Cc1cccnc1)C(=O)O; Nicotinoyl = O=C(c1cccnc1)*; dOrn = NCCC[C@@H](N)C(=O)O; 2Furoyl = O=C(c1ccco1)*; CO = O=C([*:1])[*:2]; Propionyl = CCC(=O)*; GABA = NCCCC(=O)O; azaGly = NNC(=O)O; Sar = CNCC(=O)O
// reported Kb for each item listed

Some compounds with recorded Kb:
INSERT INTO assay_data (compound, value_observed) VALUES
  ('CC(=O)N[C@H](Cc1ccc2ccccc2c1)C(=O)N[C@H](Cc1ccc(Cl)cc1)C(=O)N[C@H](Cc1cccnc1)C(=O)N[C@@H](CO)C(=O)N(C)[C@@H](Cc1ccc(O)cc1)C(=O)N[C@H](CCCCNC(=O)CCCNC(=O)c1cccnc1)C(=O)N[C@@H](CC(C)C)C(=O)N[C@@H](CCCCNC(C)C)C(=O)N1CCC[C@H]1C(=O)N[C@H](C)C(N)=O [Example 4b] (Ac-[d2Nal][dPhe(4-Cl)][d3Pal]S[NMeY][dK]([GABA-Nicotinoyl])L[Lys(iPr)]P[dA]-NH2)', '0.0234 nM'),
  ('CC(=O)N[C@H](Cc1ccc2ccccc2c1)C(=O)N[C@H](Cc1ccc(Cl)cc1)C(=O)N[C@H](Cc1cccnc1)C(=O)N[C@@H](CO)C(=O)N(C)[C@@H](Cc1ccc(O)cc1)C(=O)N[C@H](CCCCNC(=O)CN(C)C(=O)C1=C[C@@H](O)[C@@H](O)[C@H](O)C1)C(=O)N[C@@H](CC(C)C)C(=O)N[C@@H](CCCNC(=N)N)C(=O)N1CCC[C@H]1C(=O)N[C@H](C)C(N)=O [Example 48f] (Ac-[d2Nal][dPhe(4-Cl)][d3Pal]S[NMeY][dK]([Sar-Shikimoyl])LRP[dA]-NH2)', '0.0126 nM'),
  ('CCC(=O)NNC(=O)NCCCC[C@@H](NC(=O)[C@H](Cc1ccc(O)cc1)N(C)C(=O)[C@H](CO)NC(=O)[C@@H](Cc1cccnc1)NC(=O)[C@@H](Cc1ccc(Cl)cc1)NC(=O)[C@@H](Cc1ccc2ccccc2c1)NC(C)=O)C(=O)N[C@@H](CC(C)C)C(=O)N[C@@H](CCCCNC(C)C)C(=O)N1CCC[C@H]1C(=O)N[C@H](C)C(N)=O [Example 58] (Ac-[d2Nal][dPhe(4-Cl)][d3Pal]S[NMeY][dK]([azaGly-Propionyl])L[Lys(iPr)]P[dA]-NH2)', '0.0257 nM'),
  ('CC(=O)N[C@H](Cc1ccc2ccccc2c1)C(=O)N[C@H](Cc1ccc(Cl)cc1)C(=O)N[C@H](Cc1cccnc1)C(=O)N[C@@H](CO)C(=O)N(C)[C@@H](Cc1ccc(O)cc1)C(=O)N[C@H](CCCCNC(=O)NCCNC(=O)C1=C[C@@H](O)[C@@H](O)[C@H](O)C1)C(=O)N[C@@H](CC(C)C)C(=O)N[C@@H](CCCNC(=N)N)C(=O)N1CCC[C@H]1C(=O)N[C@H](C)C(N)=O [Example 15] (Ac-[d2Nal][dPhe(4-Cl)][d3Pal]S[NMeY][dK]([CO-Ethylenediamine-Shikimoyl])LRP[dA]-NH2)', '0.00282 nM'),
  ('CC(=O)N[C@H](Cc1ccc2ccccc2c1)C(=O)N[C@H](Cc1ccc(Cl)cc1)C(=O)N[C@H](Cc1cccnc1)C(=O)N[C@@H](CO)C(=O)N(C)[C@@H](Cc1ccc(O)cc1)C(=O)N[C@H](CCCCNC(=O)NNC(=O)c1ccco1)C(=O)N[C@@H](CC(C)C)C(=O)N[C@@H](CCCNC(=N)N)C(=O)N1CCC[C@H]1C(=O)N[C@H](C)C(N)=O [Example 37a] (Ac-[d2Nal][dPhe(4-Cl)][d3Pal]S[NMeY][dK]([azaGly-2Furoyl])LRP[dA]-NH2)', '0.0166 nM'),
  ('CC(=O)N[C@H](Cc1ccc2ccccc2c1)C(=O)N[C@H](Cc1ccc(Cl)cc1)C(=O)N[C@H](Cc1cccnc1)C(=O)N[C@@H](CO)C(=O)N(C)[C@@H](Cc1ccc(O)cc1)C(=O)N[C@H](CCCCNC(=O)NCCCNC(=O)C1=C[C@@H](O)[C@@H](O)[C@H](O)C1)C(=O)N[C@@H](CC(C)C)C(=O)N[C@@H](CCCNC(=N)N)C(=O)N1CCC[C@H]1C(=O)N[C@H](C)C(N)=O [Example 42] (Ac-[d2Nal][dPhe(4-Cl)][d3Pal]S[NMeY][dK]([CO-X5])LRP[dA]-NH2)', '0.0257 nM');

Give its Kb value. Item: CC(=O)N[C@H](Cc1ccc2ccccc2c1)C(=O)N[C@H](Cc1ccc(Cl)cc1)C(=O)N[C@H](Cc1cccnc1)C(=O)N[C@@H](CO)C(=O)N(C)[C@@H](Cc1ccc(O)cc1)C(=O)N[C@H](CCCCNC(=O)CNC(=O)CNC(=O)c1ccco1)C(=O)N[C@@H](CC(C)C)C(=O)N[C@@H](CCCCNC(C)C)C(=O)N1CCC[C@H]1C(=O)N[C@H](C)C(N)=O [Example 57a] (Ac-[d2Nal][dPhe(4-Cl)][d3Pal]S[NMeY][dK]([Gly-Gly-2Furoyl])L[Lys(iPr)]P[dA]-NH2)
0.0145 nM

Give its Kb value. Item: CC(=O)N[C@H](Cc1ccc2ccccc2c1)C(=O)N[C@H](Cc1ccc(Cl)cc1)C(=O)N[C@H](Cc1cccnc1)C(=O)N[C@@H](CO)C(=O)N(C)[C@@H](Cc1ccc(O)cc1)C(=O)N[C@H](CCCNC(=O)CNC(=O)C1=C[C@@H](O)[C@@H](O)[C@H](O)C1)C(=O)N[C@@H](CC(C)C)C(=O)N[C@@H](CCCNC(=N)N)C(=O)N1CCC[C@H]1C(=O)N[C@H](C)C(N)=O [Example 49c] (Ac-[d2Nal][dPhe(4-Cl)][d3Pal]S[NMeY][dOrn]([Gly-Shikimoyl])LRP[dA]-NH2)
0.0427 nM

Give its Kb value. Item: CC(=O)N[C@H](Cc1ccc2ccccc2c1)C(=O)N[C@H](Cc1ccc(Cl)cc1)C(=O)N[C@H](Cc1cccnc1)C(=O)N[C@@H](CO)C(=O)N(C)[C@@H](Cc1ccc(O)cc1)C(=O)N[C@H](CCCCNC(=O)[C@@H](CO)NC(=O)C1=C[C@@H](O)[C@@H](O)[C@H](O)C1)C(=O)N[C@@H](CC(C)C)C(=O)N[C@@H](CCCNC(=N)N)C(=O)N1CCC[C@H]1C(=O)N[C@H](C)C(N)=O [Example 11] (Ac-[d2Nal][dPhe(4-Cl)][d3Pal]S[NMeY][dK]([dS-Shikimoyl])LRP[dA]-NH2)
0.017 nM
